What follows is a record of IC50 for UniProt Q9NZJ5.
Sequence (Q9NZJ5 other isoform, or with tags, fused parts or gaps): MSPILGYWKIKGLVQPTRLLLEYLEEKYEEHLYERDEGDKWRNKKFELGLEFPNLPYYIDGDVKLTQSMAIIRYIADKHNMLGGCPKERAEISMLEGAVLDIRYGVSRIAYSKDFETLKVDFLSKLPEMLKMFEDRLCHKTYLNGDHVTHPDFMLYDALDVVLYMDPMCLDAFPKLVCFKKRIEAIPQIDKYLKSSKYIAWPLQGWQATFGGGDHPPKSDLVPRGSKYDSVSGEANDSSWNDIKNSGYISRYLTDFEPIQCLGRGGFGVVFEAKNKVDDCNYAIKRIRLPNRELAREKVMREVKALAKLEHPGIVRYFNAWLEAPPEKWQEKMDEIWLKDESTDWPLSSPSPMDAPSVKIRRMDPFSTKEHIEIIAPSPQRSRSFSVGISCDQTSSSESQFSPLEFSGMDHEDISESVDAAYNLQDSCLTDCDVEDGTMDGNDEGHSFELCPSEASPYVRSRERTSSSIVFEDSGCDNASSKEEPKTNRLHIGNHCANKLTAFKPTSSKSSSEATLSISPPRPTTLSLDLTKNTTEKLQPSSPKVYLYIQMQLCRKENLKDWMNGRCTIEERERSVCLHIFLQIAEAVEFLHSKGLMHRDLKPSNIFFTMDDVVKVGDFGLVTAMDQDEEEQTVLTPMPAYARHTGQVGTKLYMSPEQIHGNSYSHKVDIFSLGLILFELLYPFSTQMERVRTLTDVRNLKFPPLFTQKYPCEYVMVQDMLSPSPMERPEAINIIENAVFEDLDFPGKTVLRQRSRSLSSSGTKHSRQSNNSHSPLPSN

Answered cases to consult:
>>> result("CNc1ncc2cc(-c3cc(NS(=O)(=O)c4cc(Cl)cnc4OC)ccc3F)c(NC)nc2n1")
"100 to 500 nM"
>>> result("CNc1ncc2cc(-c3cc(NS(=O)(=O)c4cc(Cl)cnc4OC)cc(F)c3F)c(NC)nc2n1")
"100 to 500 nM"
>>> result("CNc1cc2nc(C)c(-c3cccc(NS(=O)(=O)c4cc(Cl)cc(CO)c4Cl)c3F)cc2cn1")
"≤ 100 nM"
>>> result("COc1ncc(Cl)cc1S(=O)(=O)Nc1cccc(-c2cc3cnc(Nc4cnn(C)c4)nc3nc2C)c1F")
"≤ 100 nM"
>>> result("CNc1cc2nc(C)c(-c3ccc(F)c(NS(=O)(=O)c4cc(Cl)cc(CO)c4Cl)c3)cc2cn1")
"≤ 100 nM"
>>> result("COc1ncc(Cl)cc1S(=O)(=O)Nc1ccc(C)c(-c2ccc3cc(N)ncc3c2)c1")
"100 to 500 nM"

Form field IC50, entry COc1ncc(Cl)cc1S(=O)(=O)Nc1cccc(-c2ccc3nc(NC(C)=O)ncc3c2)c1F : 100 to 500 nM

Form field IC50, entry CNc1ncc2cc(-c3c(F)ccc(NS(=O)(=O)c4cc(Cl)cnc4OC)c3F)c(C)nc2n1 : ≤ 100 nM

Values from patent US11912668B2
